Entries and their percent blocking values follow.
Target: SARS-CoV spike RBD (R306-F527), C-terminal 6-His (SARS-CoV, UniProt P59594 306-527)
Assay: flow cytometry, blocking of binding to hACE-2 cells
reportedMetric: percent blocking (%)

INSERT INTO assay_data (binder, reportedmetric, resultunit, experimentalresult) VALUES
  ('1035752 (antibody, V domains shown) VH: QVQLQQPGAELVRPGASVKMSCKASGYTFTSHSIHWVKQTPGQGLEWIGAVYPGNGDTSYYQKFKGKATLTADKSSSTAYMHLSSLTSEDSAVYYCARDGYSDYYAMDCWGQGTSVTVSS VL: DIVMTQSQKFMSTSVGDRVSVTCKASQNVGTNVAWYQQKPGQSPKALIYSASYRYSGVPDRFTGSGSGTDFTLTINNVQSEDLAEYFCQQYNRYPWTFGGGTKLEIK', 'percent blocking', '%', 0),
  ('1035753 (antibody, V domains shown) VH: EVQLQQSGAELVRPGALVKLSCKASGFNIKDYYMHWVKQRPEQGLEWIGWIDPENGNTIYDPKFLGKASITADTSSNTAYLQLSSLTSEDTAVYYCARWYYYAMDSWGQGTSVTVSS VL: DIQMTQTTSSLSASLGDRVTISCSASQGISNYLNWYQQKPDGTVKLLIYYTSSLHSGVPSRFSGSGSGTDYSLTISNLEPEDIATYYCQQYSKLPFTFGGGTNLEMK', 'percent blocking', '%', 0),
  ('1035423 (antibody, V domains shown) VH: EVKLEESGGGLVQPGGSMKLSCTASGFTFSDAWMDWVRQSPEKGLEWVAEIRNKANNHATYYAESVKGRFTISRDDSKSSVYLQMNSLRAEDTGIYYCILFITYAMDYWGQGTSVTVSS VL: DIVLTQSQKFMSTSVGDRVSITCKASQNVRTAVAWYQQKPGQSPKALIYLASNRHTGVPDRFTGSGSGTDFTLTISNVQSEDLADYFCLQHWNYPLTFGSGTKLELK', 'percent blocking', '%', 0);
